Listed next: entries and their corresponding Percent Effect.
target: Sialic acid-binding Ig-like lectin 9 (Homo sapiens) (UniProt Q9Y336); assay: Hs-Siglec9 ALPHAscreen SOP 20170721; design: scale not given: direction of the effect not stated beside the values; conditions: 10 µM
Sequence (Q9Y336 whole entry): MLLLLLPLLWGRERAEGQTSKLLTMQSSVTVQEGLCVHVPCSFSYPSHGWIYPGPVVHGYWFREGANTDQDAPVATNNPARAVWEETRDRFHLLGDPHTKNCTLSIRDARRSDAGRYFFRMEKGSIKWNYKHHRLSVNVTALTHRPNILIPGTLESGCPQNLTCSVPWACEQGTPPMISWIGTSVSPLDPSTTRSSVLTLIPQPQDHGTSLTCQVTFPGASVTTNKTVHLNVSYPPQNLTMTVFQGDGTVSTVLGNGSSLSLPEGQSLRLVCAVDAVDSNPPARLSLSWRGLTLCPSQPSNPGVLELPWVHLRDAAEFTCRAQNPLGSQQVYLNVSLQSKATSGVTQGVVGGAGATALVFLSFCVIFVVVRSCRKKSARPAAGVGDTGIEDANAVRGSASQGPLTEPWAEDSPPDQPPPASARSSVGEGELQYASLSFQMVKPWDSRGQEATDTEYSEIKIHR
Show the value, then the unit it is measured in.

The examples below pair each entry with its known result.
> print(dat)
                                   molecule  reported.endpoint  value.reported
1       c1ccc(OC[C@@H]2CCC[C@@]23CNCCO3)nc1     Percent Effect          -8.96%
2  COc1ccc(C)cc1CC(=O)N1CCN(CC(C)O)CC1 (configuration not stated)     Percent Effect           6.85%

I am curious: what Percent Effect value has been reported for COCC(=O)N1C[C@@H]2OCCN(Cc3c(C)noc3C)[C@@H]2C1 ?
-1.81%

I am curious: what Percent Effect value has been reported for Cc1cccc(CN2CC[C@@H]3[C@@H]2CCN3C(=O)c2ccno2)n1 ?
-3.73%

* * *

Listed next: entries and their corresponding Percent Effect.
target: Shiga toxin 2 (Escherichia coli O157:H7) (UniProt P09385+P09386); test: E. coli 0.157:H7 Shiga Toxin SOP - stx2 screening assay; format: functional; set-up: scale not given: direction of the effect not stated beside the values; conditions: 30 µM
Please respond with the number in % and leave the unit unwritten.

> print(dat)
                                   compound  value.reported
1  COc1ccc(CN(C)CC(=O)NC2(C)CCS(=O)(=O)C2)cc1F (centres undefined)           -2.83

I am curious: what Percent Effect value has been reported for CCc1nnc2n1CCN(CC(=O)Nc1sccc1C#N)C2 ?
24.4

I am curious: what Percent Effect value has been reported for CO[C@H]1CCN(Cc2ccccn2)[C@@H]2CN(Cc3ccco3)C[C@H]12 ?
-18.4

I am curious: what Percent Effect value has been reported for Cc1cc(N2CCN(CC(=O)N(C)C)CC2)nc(-c2ccncc2)n1 ?
-5.53

I am curious: what Percent Effect value has been reported for COc1cccc2c1OCC(NC(=O)NC1CCN(C3CC3)CC1)C2 (centres undefined) ?
3.63

I am curious: what Percent Effect value has been reported for O=C(Nc1ccc(CCN2CCC(O)CC2)cc1)C1CCOCC1 ?
-38.6

I am curious: what Percent Effect value has been reported for Cc1cnn(CC2CCCN2C(=O)Cc2n[nH]c3ccccc23)c1 (centres undefined) ?
12.2

I am curious: what Percent Effect value has been reported for O=C(NC1(c2cccc(F)c2)CCOCC1)c1ccoc1 ?
-19.4

I am curious: what Percent Effect value has been reported for NC(=O)CC1CCN(C(=O)NCc2ccccc2-n2cccn2)CC1 ?
-4.75

I am curious: what Percent Effect value has been reported for COCC1CC2(CCN(Cc3ccccn3)CC2)CN1C(C)C (centres undefined) ?
-1.31

I am curious: what Percent Effect value has been reported for O=C(CN1CCCCC1C1OCCO1)Nc1ccc(F)c(F)c1 (centres undefined) ?
3.89

I am curious: what Percent Effect value has been reported for O=C(c1ccno1)N1CC[C@@H]2O[C@@H](COCCN3CCCC3)CC[C@@H]21 ?
-4.5

I am curious: what Percent Effect value has been reported for CC(C)c1nn(CC(=O)N2CCCCC2)c(=O)c2c1cnn2C(C)(C)C ?
2.7

I am curious: what Percent Effect value has been reported for CC(=O)N1CCC2(CCN(C(=O)c3ccc(C)c(C(F)(F)F)c3)CC2)C1 ?
-10.7
